Assign pIC50 to each entry below.
target: hSCN3A (Homo sapiens, UniProt Q9NY46); assay: SCN3A inhibitory activity in HEK cells stably expressing hSCN3A (whole-cell patch clamp / radiotracer efflux HTS); conditions: HEK cells stably transfected with hSCN3A
Sequence (Q9NY46 whole entry): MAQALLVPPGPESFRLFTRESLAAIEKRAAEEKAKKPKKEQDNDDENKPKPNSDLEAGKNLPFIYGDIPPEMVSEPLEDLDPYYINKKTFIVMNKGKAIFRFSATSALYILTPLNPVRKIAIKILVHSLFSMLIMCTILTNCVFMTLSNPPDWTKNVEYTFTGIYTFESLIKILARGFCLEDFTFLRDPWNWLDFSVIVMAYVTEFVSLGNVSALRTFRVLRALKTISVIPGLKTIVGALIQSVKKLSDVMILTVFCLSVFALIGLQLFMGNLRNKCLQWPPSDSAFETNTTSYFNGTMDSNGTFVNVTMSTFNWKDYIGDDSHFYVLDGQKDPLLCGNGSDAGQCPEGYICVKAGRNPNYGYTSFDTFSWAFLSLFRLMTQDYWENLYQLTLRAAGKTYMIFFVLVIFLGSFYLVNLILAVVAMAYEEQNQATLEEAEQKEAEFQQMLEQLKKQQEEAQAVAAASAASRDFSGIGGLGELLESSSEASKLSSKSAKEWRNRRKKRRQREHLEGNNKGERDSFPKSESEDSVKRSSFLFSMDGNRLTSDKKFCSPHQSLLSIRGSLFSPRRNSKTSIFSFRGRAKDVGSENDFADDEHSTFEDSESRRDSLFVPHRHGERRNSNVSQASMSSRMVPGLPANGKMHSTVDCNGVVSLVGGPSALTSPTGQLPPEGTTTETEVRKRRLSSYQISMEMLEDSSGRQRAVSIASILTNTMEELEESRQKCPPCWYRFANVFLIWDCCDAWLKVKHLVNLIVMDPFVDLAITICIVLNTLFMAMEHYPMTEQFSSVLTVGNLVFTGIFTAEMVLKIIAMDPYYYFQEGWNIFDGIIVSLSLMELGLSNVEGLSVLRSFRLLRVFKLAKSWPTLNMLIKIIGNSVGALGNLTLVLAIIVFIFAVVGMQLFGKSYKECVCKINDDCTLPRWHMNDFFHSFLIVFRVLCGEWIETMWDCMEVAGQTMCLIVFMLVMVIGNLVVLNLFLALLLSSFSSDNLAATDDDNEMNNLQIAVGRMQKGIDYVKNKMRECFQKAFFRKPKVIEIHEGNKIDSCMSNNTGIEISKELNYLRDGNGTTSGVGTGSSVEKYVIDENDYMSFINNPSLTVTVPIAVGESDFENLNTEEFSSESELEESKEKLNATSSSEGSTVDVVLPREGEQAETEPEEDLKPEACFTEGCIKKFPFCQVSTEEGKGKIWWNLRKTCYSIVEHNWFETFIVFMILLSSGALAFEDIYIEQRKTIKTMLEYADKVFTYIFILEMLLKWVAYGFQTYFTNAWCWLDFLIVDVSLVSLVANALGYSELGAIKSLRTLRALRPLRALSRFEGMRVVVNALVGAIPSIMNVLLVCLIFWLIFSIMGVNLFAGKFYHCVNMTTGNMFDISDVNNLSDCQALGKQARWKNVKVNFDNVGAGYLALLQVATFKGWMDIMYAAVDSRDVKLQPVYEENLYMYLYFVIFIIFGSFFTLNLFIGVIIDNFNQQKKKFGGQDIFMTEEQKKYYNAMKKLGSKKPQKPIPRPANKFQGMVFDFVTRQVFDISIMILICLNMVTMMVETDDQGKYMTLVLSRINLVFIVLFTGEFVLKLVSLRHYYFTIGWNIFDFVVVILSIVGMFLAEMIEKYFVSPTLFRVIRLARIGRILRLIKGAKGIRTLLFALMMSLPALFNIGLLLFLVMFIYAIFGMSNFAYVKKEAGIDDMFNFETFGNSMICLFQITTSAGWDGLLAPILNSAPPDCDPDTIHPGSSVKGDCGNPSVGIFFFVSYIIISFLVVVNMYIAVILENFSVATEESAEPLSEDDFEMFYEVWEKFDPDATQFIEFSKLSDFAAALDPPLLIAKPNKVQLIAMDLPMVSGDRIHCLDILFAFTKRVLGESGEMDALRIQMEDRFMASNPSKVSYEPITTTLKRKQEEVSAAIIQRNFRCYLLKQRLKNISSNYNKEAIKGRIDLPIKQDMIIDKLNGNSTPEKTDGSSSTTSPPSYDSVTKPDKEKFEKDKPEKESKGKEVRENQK
pIC50: −log10 of the molar value.

compound	result
Cc1ccc(C2(c3c[nH]c(-c4ccc(S(=O)(=O)Nc5nccs5)cc4)n3)CCCCC2)cc1	6.30 to 7.00
O=S(=O)(Nc1nccs1)c1ccc(-c2nc(C3(c4ccccc4)CC3)c[nH]2)cc1	< 6.00
O=S(=O)(Nc1nccs1)c1ccc(-c2ncc(C(c3ccccc3)c3ccccc3)[nH]2)cc1	6.30 to 7.00
CC1(Cc2ccc(Cl)c(Cl)c2)N=C(c2ccc(S(=O)(=O)Nc3nccs3)cc2)NC1=O (centres unmarked)	< 6.00
O=S(=O)(Nc1nccs1)c1ccc(-c2nc(CCc3ccccc3Cl)c[nH]2)cc1	6.30 to 7.00

Give me pIC50 for each of these compounds, listed below.
1. COc1ccc(CCc2c[nH]c(-c3ccc(S(=O)(=O)Nc4nccs4)cc3)n2)cc1Cl
2. O=S(=O)(Nc1nccs1)c1ccc(-c2nc(CCc3cc(Cl)cc(Cl)c3)c(I)[nH]2)cc1
3. O=S(=O)(Nc1nccs1)c1ccc(-c2nc(CCc3cc(C(F)(F)F)ccc3C(F)(F)F)c[nH]2)cc1
4. O=S(=O)(Nc1nccs1)c1ccc(-c2nc3ccccc3[nH]2)cc1
5. O=S(=O)(Nc1nccs1)c1ccc(-c2nc(Cc3ccc(Cl)cc3)n[nH]2)cc1F

1. 6.30 to 7.00
2. > 7.00
3. 6.30 to 7.00
4. < 6.00
5. > 7.00

###

Assign pIC50 to each entry below.
molecular target: UniProtKB Q9NY46; experiment: SCN3A inhibitory activity in HEK cells stably expressing hSCN3A (whole-cell patch clamp / radiotracer efflux HTS); conditions: HEK cells stably transfected with hSCN3A
pIC50: −log10 of the molar value.

compound	observation_type	result
O=S(=O)(Nc1nccs1)c1ccc(-c2nnc(Cc3ccc(Cl)c(Cl)c3)[nH]2)cc1 [Compound 95]	pIC50	> 7.00
O=S(=O)(Nc1nccs1)c1ccc(-c2nnc(COc3ncc(Cl)cc3Cl)[nH]2)cc1 [Compound 120]	pIC50	< 6.00

Give me pIC50 for each of these compounds, listed below.
1. CS(=O)(=O)c1ccc(Cc2c[nH]c(-c3ccc(S(=O)(=O)Nc4nccs4)cc3)n2)cc1 [Compound 54]
2. O=S(=O)(Nc1nccs1)c1ccc(-c2nc(Cc3ccc(F)cc3Cl)c[nH]2)cc1 [Compound 13]
3. O=S(=O)(Nc1nccs1)c1ccc(-c2nc(Cc3ccccc3F)c[nH]2)cc1 [Compound 35]
4. O=S(=O)(Nc1nccs1)c1ccc(-c2nc(CCc3cccc(Cl)c3)c[nH]2)cc1 [Compound 28]
5. O=S(=O)(Nc1nccs1)c1ccc(-c2nc(Cc3cccc(Cl)c3)c[nH]2)cc1 [Compound 16]

1: < 6.00; 2: > 7.00; 3: 6.00 to 6.30; 4: 6.30 to 7.00; 5: > 7.00

###

Assign IC50 to each entry below.
biological target: hSCN3A (Homo sapiens, UniProt Q9NY46); test: SCN3A inhibitory activity in HEK cells stably expressing hSCN3A (whole-cell patch clamp / radiotracer efflux HTS); conditions: HEK cells stably transfected with hSCN3A

Sample records with IC50:
compound	target_entity	IC50
O=S(=O)(Nc1nccs1)c1ccc(-c2nc(Cc3ccc(C(F)(F)F)cc3)c[nH]2)cc1	hSCN3A (Homo sapiens, UniProt Q9NY46)	100 to 500 nM
O=S(=O)(Nc1nccs1)c1ccc(-c2nc(COc3c(Cl)cccc3Cl)n[nH]2)cc1F	hSCN3A (Homo sapiens, UniProt Q9NY46)	100 to 500 nM
O=S(=O)(Nc1nccs1)c1ccc(NCC(c2ccccc2)c2ccccc2)nc1	hSCN3A (Homo sapiens, UniProt Q9NY46)	500 to 1000 nM
O=S(=O)(Nc1nccs1)c1ccc(-c2nc(CCc3ccc(C(F)(F)F)cc3)c[nH]2)cc1	hSCN3A (Homo sapiens, UniProt Q9NY46)	100 to 500 nM
O=S(=O)(Nc1nccs1)c1ccc(-c2nnc(C(c3ccccc3)c3ccccc3)[nH]2)cc1	hSCN3A (Homo sapiens, UniProt Q9NY46)	100 to 500 nM

Give me IC50 for each of these compounds, listed below.
1. O=S(=O)(Nc1nccs1)c1ccc(-c2nc(C3CCC(c4ccc(Cl)cc4)CC3)c[nH]2)cc1 (stereo not shown)
2. O=S(=O)(Nc1nccs1)c1ccc(-c2nnc(COc3ccc(C(F)(F)F)cn3)[nH]2)cc1
3. COc1ccc(C2(c3c[nH]c(-c4ccc(S(=O)(=O)Nc5nccs5)cc4)n3)CC2)cc1
4. O=S(=O)(Nc1nccs1)c1ccc(-c2nc(CCCOc3ccc(Cl)cc3Cl)c[nH]2)cc1
5. Cc1ccc(C)c(CCc2c[nH]c(-c3ccc(S(=O)(=O)Nc4nccs4)cc3)n2)c1
6. O=S(=O)(Nc1nccs1)c1ccc(-c2nc(C3(c4ccc(Cl)cc4)CCC3)c[nH]2)cc1

["< 100 nM", "> 1000 nM", "500 to 1000 nM", "< 100 nM", "100 to 500 nM", "100 to 500 nM"]

Give me IC50 for each of these compounds, listed below.
1. O=S(=O)(Nc1nccs1)c1ccc(-c2nc(CCc3ccc(F)cc3)c[nH]2)cc1
2. O=S(=O)(Nc1nccs1)c1ccc(-c2nc(COc3c(Cl)cccc3Cl)n[nH]2)cc1
3. O=S(=O)(Nc1nccs1)c1ccc(-c2nc(C(c3ccccc3)C3CCCCC3)c[nH]2)cc1 (stereo not shown)
4. CC1(c2ccc(S(=O)(=O)Nc3nccs3)cc2)C(=O)NC(=O)N1Cc1ccc(Cl)c(Cl)c1 (stereo not shown)

100 to 500 nM
> 1000 nM
100 to 500 nM
> 1000 nM
